Source: patent US9562060B2

Tested on: Human gastric cancer cell SNU-5
Assay: Inhibition of in vitro proliferation of human gastric cancer cell SNU-5 (SRB)
Type: cell-based
Settings: Homo sapiens, SNU-5 cells, 72-hr agent treatment, read-out: Strength of activity (inhibition on SNU-5, IC50)
Reported IC50 is given for each of the following compounds.

Worked examples, 5 compounds total:
COc1cc2c(Oc3ccc(NC(=O)c4cc5ncsc5n(-c5ccccc5CCO)c4=O)cc3F)ccnc2cc1OCCCN1CCOCC1: 500 to 5000 nM
O=C(Nc1ccc(Oc2ccnc(NC(=O)N3CCOCC3)c2Cl)c(F)c1)c1cc2ncsc2n(-c2ccc(F)cc2)c1=O: 100 to 500 nM
Cn1ncc2cc(C(=O)Nc3ccc(Oc4ccnc5[nH]ccc45)c(F)c3)c(=O)n(-c3ccc(F)cc3)c21: 100 to 500 nM
COc1ccc2c(Oc3ccc(NC(=O)c4cc5ncsc5n(-c5ccc(F)cc5)c4=O)cc3F)ccnc2c1: 100 to 500 nM
Nc1nccc(Oc2ccc(NC(=O)c3cc4ncsc4n(-c4ccc(F)cc4)c3=O)cc2F)c1Cl: 100 to 500 nM

Here Cn1ncc2cc(C(=O)Nc3ccc(Oc4ccnc(N)c4)c(F)c3)c(=O)n(-c3ccc(F)cc3)c21 was tested on Human gastric cancer cell SNU-5, and its IC50 came to 500 to 5000 nM

For CN(C)c1nc2cc(C(=O)Nc3ccc(Oc4ccnc(N)c4)c(F)c3)c(=O)n(-c3ccc(F)cc3)c2s1 on Human gastric cancer cell SNU-5, measured IC50 was 100 to 500 nM

Recorded IC50 for O=C(Nc1ccc(Oc2ccnc(NC(=O)N3CCC(O)CC3)c2)c(F)c1)c1cc2ncsc2n(-c2ccc(F)cc2)c1=O on Human gastric cancer cell SNU-5 was 100 to 500 nM

Form: item COc1cc2c(Oc3ccc(NC(=O)c4cc5cnn(C)c5n(-c5ccc(F)cc5)c4=O)cc3F)ccnc2cc1OCCCN1CCOCC1 ; test system Human gastric cancer cell SNU-5; IC50: 100 to 500 nM

Log: Human gastric cancer cell SNU-5, compound CN1CCOc2cc(C(=O)Nc3ccc(Oc4ccnc(N)c4Cl)c(F)c3)c(=O)n(-c3ccc(F)cc3)c21 , IC50 = 500 to 5000 nM
